molecular target: GST-TMEM106B (truncated, comprising amino acids 122-210 of SEQ ID NO:1) (Homo sapiens, UniProt Q9NUM4); test: Pre-mix epitope binning of anti-TMEM106B antibodies (Carterra / Lake Pharma); type: binding; parameters: key: Bin 1: competes for binding to the same or overlapping TMEM106B region as the TM1, TM17, TM22, TM26, TM79, and/or TM82 antibodies; Bin 2: competes for binding to the same or overlapping TMEM106B region as the TM3, TM9, TM10, TM11, TM12, TM13, TM18, TM19, TM21, TM24, TM25, TM32, TM35, TM37, TM42, TM45, TM48, TM54, TM59, TM60, TM61, and/or TM76 antibodies; Bin 3: competes for binding to the same or overlapping TMEM106B region as the TM7, TM15, TM83, and/or TM84 antibodies; Bin 4: competes for binding to the same or overlapping TMEM106B region as the TMS, TM28, TM29, TM30, TM63, TM64, TM72, TM78, TM80, TM86, and/or TM88 antibodies; Bin 5: does not bind to a truncated TMEM106B comprising amino acids 122-210 of SEQ ID NO:1; settings: competition for binding to truncated GST-TMEM106B (amino acids 122-210)
Sequence (Q9NUM4 122-210): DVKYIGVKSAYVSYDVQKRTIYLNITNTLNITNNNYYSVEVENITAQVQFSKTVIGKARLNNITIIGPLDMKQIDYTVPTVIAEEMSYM
Quantity Measured: epitope bin

{"Molecule": "TM-60: anti-TMEM106B monoclonal antibody; VH SEQ ID NO: 413, VL SEQ ID NO: 502 (antibody, V domains shown, Variable Heavy Chain -- TM-48, TM-60; Variable Light Chain -- TM-60) VH: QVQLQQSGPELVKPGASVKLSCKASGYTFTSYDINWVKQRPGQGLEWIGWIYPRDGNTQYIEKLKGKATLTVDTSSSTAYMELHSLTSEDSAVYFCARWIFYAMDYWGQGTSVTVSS VL: DVLMTQTPLSLPVSLGDQASISCRSSQSIVHGNGNTYLEWYLQKPGQSPKLLIYKVSNRFSGVPDRFSGSGSGTDFTLKISRVEAEDLGVYYCFQGSHLPYTFGGGTKLEIK", "Quantity Measured": "epitope bin", "Val": "Bin 2"}
{"Molecule": "TM-86: anti-TMEM106B monoclonal antibody; VH SEQ ID NO: 491, VL SEQ ID NO: 526 (antibody, V domains shown, Variable Heavy Chain -- TM-86; Variable Light Chain -- TM-86) VH: EVQLQQSGPVLVKPGASVKMSCKASGYTFTDYYIHWVKQSHGRSLEWIGVISPYNDNTNYNQKFKGKATLTVDKSSSTAYMELNSLTSEDSAVYYCVRTYYSNYFDYWGQGTTLTVSS VL: DIVMTQSPSSLSVSAGEKVTMSCKSSQSLLNSGNQKNYLAWHQQRPGQPPKLLIYGASTRESGVPDRFTGSGSGTEFTLTISSVQAEDLAVYYCQNDHSYPLTFGAGTKLELK", "Quantity Measured": "epitope bin", "Val": "Bin 4"}
{"Molecule": "TM-82: anti-TMEM106B monoclonal antibody; VH SEQ ID NO: 487, VL SEQ ID NO: 522 (antibody, V domains shown, Variable Heavy Chain -- TM-82; Variable Light Chain -- TM-82) VH: QVQLQQSGAELVRPGTSVRVSCKASGYAFTNYLIEWIKQRPGQGLEWIGVINPGSGITDYSEKFKGKARLTADKSSSTAYMQLSSLTSDDSAVYFCTRSPFITTVVADYWGQGTTVTVSS VL: DVVVTQTPLSLPVSFGDQVSISCRSSQSLANTYGNTYLSWYLHTPGQSPQLLIFGISNRFSGVPDRFSGSGSGTDFTLKISTIKPEDLGVYYCLQGTHPPRTFGGGTKLEMK", "Quantity Measured": "epitope bin", "Val": "Bin 1"}
{"Molecule": "TM-63: anti-TMEM106B monoclonal antibody; VH SEQ ID NO: 469, VL SEQ ID NO: 505 (antibody, V domains shown, Variable Heavy Chain -- TM-63; Variable Light Chain -- TM-63) VH: QVQLQQPGAELVKFGASVKLSCKASGYTFTSFWMHWVKQRPGQGLEWIGNIDPSDSETHYSQKFKDKATLTVDRSSNTAYIQLSSLTSEDSAVYYCARSSNWDNFDYWGQGTTVTVSS VL: DIVMTQASPSVSVTPGESVSISCRSSQSLLHVNGNTYLYWFLQRPGRSPRLLIYRMSNLASGVPDRFSGSGSGTAFTLRISRVEAEDVGVYYCMQHLQYPFSFGSGTKLEMK", "Quantity Measured": "epitope bin", "Val": "Bin 4"}
{"Molecule": "TM-76: anti-TMEM106B monoclonal antibody; VH SEQ ID NO: 481, VL SEQ ID NO: 516 (antibody, V domains shown, Variable Heavy Chain -- TM-76; Variable Light Chain -- TM-76) VH: QVTLKESGPGILQPSQTLSLTCSFSGFSLSTSGMGVSWIRKPSGKGLEWLAHIFWDDDKRYNLFLKSRLTVSKDTSSNQVFLMITSVDTTDTATYYCARMGRQRDYFDYWGQGTSLTVSS VL: QIILTQSPAIMSASLGEEITLTCSASLSISYVHWYQQKSGASPKLLIYGTSNLASGVPSRFSGSGSGTFYSLTISSVEAEDAADYYCHQWSIYRTFGGGTKLEMK", "Quantity Measured": "epitope bin", "Val": "Bin 2"}
{"Molecule": "TM-29: anti-TMEM106B monoclonal antibody; CDR-H1-3 SEQ ID NO: 20, 60, 103; CDR-L1-3 SEQ ID NO: 143, 168, 207 (antibody, V domains shown) VH: QVQLRQSGAELVRPGASVKLSCKASGYTFTDYYINWVKQRPGQGLEWIARIYPGSGYTYYNEKFKGKATLTAEGSSNTAYMQLSSLTSEDSAVYFCANHYTNPFAYWGQGTLVTVSA VL: DIVMTQAAFSNPVTLGTSASISCRSSKSLLHYNGITYLYWYLQKPGQSPQLLIYQMSNLASGVPDRFSSSGSGTDFTLRISRVEAEDVGVYYCAQNLELPYTFGGGTKLEIK", "Quantity Measured": "epitope bin", "Val": "Bin 4"}
{"Molecule": "TM-88: anti-TMEM106B monoclonal antibody; VH SEQ ID NO: 493, VL SEQ ID NO: 528 (antibody, V domains shown, Variable Heavy Chain -- TM-88; Variable Light Chain -- TM-88) VH: EAQLQQSGPVLVKPGASVKMSCKTSGYTFTDYYINWVKQSHGKSLEWIGVINPYSGATYYTQKFKGKATLTVDKSSSTAYMELNSQTSEDSAVYYCARGGYDYGHWYFDVWGTGTTVTVSS VL: ETTVTQSPASLSMAIGEKVTIRCITSSDIDDHMNWYRQKPGEPPEFLISEGNALRPGVPSRFSSSGYGTDFIFTIENILSEDVADYYCLQSDNLPLTFGAGTKLELK", "Quantity Measured": "epitope bin", "Val": "Bin 4"}

Measured values drawn from patent US20240166738A1 for this set.
